System: C57BL/6JL Lep ob/Lep ob mice
Assay: Blood lipid, glucose and enzyme levels in obese mice (ob/ob)
Type: in vivo
Design: unit not given here
Conditions: 100 mg/kg for 26 days
Description: 10-week-old C57BL/6JL Lep ob/Lep ob male mice having obesity characteristics and predisposition were purchased from Daehan Biolink Co., Ltd. (Chungchongbuk-do, Korea). Animals were raised in a breeding room maintained at a temperature of 23 C, 55% humidity, illumination of 300 to 500 lux, a 12-h light/dark (L/D) cycle, and ventilation of 10 to 18 times/hr. […]
REPORTED PROPERTY: GOT
// no unit, no text: just the number

Please respond with reported GOT (system C57BL/6JL Lep ob/Lep ob mice) for CC1(c2ccccc2)CCC2=C(O1)c1ccccc1C(=O)C2=O (centres unmarked) . 40

Please respond with reported GOT (system C57BL/6JL Lep ob/Lep ob mice) for Cc1ccc2c(c1)C1=C(CCC(C)(C)O1)C(=O)C2=O . 57

Please respond with reported GOT (system C57BL/6JL Lep ob/Lep ob mice) for CC1(C)CCC2=C(O1)c1ccccc1C(=O)C2=O . 42

Please respond with reported GOT (system C57BL/6JL Lep ob/Lep ob mice) for CC1(C)CCC2=C(O1)c1cc(Cl)ccc1C(=O)C2=O . 46

Please respond with reported GOT (system C57BL/6JL Lep ob/Lep ob mice) for CC1(C)CC2=C(O1)c1ccccc1C(=O)C2=O . 48
